Listing: acute toxicity LD50 of selected compounds
system: mice; assay: acute toxicity (LD50), intraperitoneal administration in mice; type: in vivo; details: mice (male, 20 g)
readout.type: acute toxicity LD50 (milligrams per kilogram)

# compound, measured.value
measured = [
    ("CCCCN(C)C(=O)[C@H](CCCNC(=N)N)NS(=O)(=O)c1cccc2c(N(C)C)cccc12 [reference compound]", 70),
    ("CCCCNC(=O)[C@H](CCCNC(=N)N)NS(=O)(=O)c1cccc2c(N(C)C)cccc12 [N^2 -dansyl-N-butyl-L-argininamide, reference compound]", 75),
]
